# Test: Toxicity liver stage against HepG2, at 10uM
# Type: cell-based
# Design: test concentration 10 uM, cell line HepG2-A16-CD81EGFP
# Measurement conditions: human, HepG2-A16-CD81EGFP cells; read-out: INHIBITION
Property: cytotoxicity at 10 µM (%)

[[record]]
molecule = "N#Cc1cn(C2CC2)c(=O)n(CC(O)c2ccc(F)cc2)c1=O (stereo unspecified)"
property = "cytotoxicity at 10 µM"
obs_value = 2.37

[[record]]
molecule = "CN(CC(=O)Nc1ccc(Br)cn1)C(=O)C(C)(C)C"
property = "cytotoxicity at 10 µM"
obs_value = -11.9

[[record]]
molecule = "COc1ccc(CCC(=O)N2CCCC2Cn2cc(C)cn2)cc1F (stereo unspecified)"
property = "cytotoxicity at 10 µM"
obs_value = 2.36

[[record]]
molecule = "Cc1ccc2nc(CNCCCOc3ccccc3)cc(O)c2c1 [UCSF924]"
property = "cytotoxicity at 10 µM"
obs_value = 5.5

[[record]]
molecule = "CC(C)C(C)n1nccc1NC(=O)Cn1cnc2ccccc21 (stereo unspecified)"
property = "cytotoxicity at 10 µM"
obs_value = 10.8

[[record]]
molecule = "Cc1cc(NC(=O)c2nc(N3CCCC3)ncc2Cl)nc(C(C)C)n1"
property = "cytotoxicity at 10 µM"
obs_value = 69.3

[[record]]
molecule = "CN(C1CCCCC1)S(=O)(=O)N1CCN(Cc2ccon2)CC1"
property = "cytotoxicity at 10 µM"
obs_value = 6.75

[[record]]
molecule = "O=c1ccc(-c2cccs2)nn1CN1CCOCC1"
property = "cytotoxicity at 10 µM"
obs_value = 5.68

[[record]]
molecule = "CC(=O)N1CCCN(C(=O)c2cnn(C(C)(C)C)c2C)CC1"
property = "cytotoxicity at 10 µM"
obs_value = 2.89

[[record]]
molecule = "CCN1CCN(S(=O)(=O)c2ccc(Cc3cc(C)n[nH]c3=O)cc2)CC1"
property = "cytotoxicity at 10 µM"
obs_value = -8.25

[[record]]
molecule = "CCCOc1cccc(C(=O)Oc2cc(=O)n3cccc(C)c3n2)c1"
property = "cytotoxicity at 10 µM"
obs_value = 12.1


###

# Test: Toxicity liver stage against HepG2, at 10uM
# Assay type: cell-based
# Set-up: test concentration 10 uM, cell line HepG2-A16-CD81EGFP
# Measurement conditions: human, HepG2-A16-CD81EGFP cells; read-out: INHIBITION
cytotoxicity at 10 µM overview
Property: cytotoxicity at 10 µM (%)

[[record]]
molecule = "COc1ccc(CC(=O)N2CC(=O)NCC(C)(C)C2)cc1"
units_symbol = "%"
obs_value = -0.634

[[record]]
molecule = "CC(C)OCCCN(Cc1ccncc1)Cc1cc(F)cc(F)c1"
units_symbol = "%"
obs_value = -25.6

[[record]]
molecule = "Cc1cnc(CCNC(Cc2ccncc2)C(F)(F)F)s1 (configuration not stated)"
units_symbol = "%"
obs_value = 24.4

[[record]]
molecule = "CC(C)(C)CCCC(=O)Nc1ccnn1C1CCS(=O)(=O)C1 (configuration not stated)"
units_symbol = "%"
obs_value = -9.92

[[record]]
molecule = "O=S(=O)(NCC1COc2ccccc2C1)N1CCOCC1 (configuration not stated)"
units_symbol = "%"
obs_value = -1.5

[[record]]
molecule = "O=c1occ(CN2CCCCCC2)c(O)c1CN1CCCCCC1"
units_symbol = "%"
obs_value = -8.1

[[record]]
molecule = "Cc1ccc(C(=O)N(C)Cc2cscn2)c(=O)[nH]1"
units_symbol = "%"
obs_value = -7.69

[[record]]
molecule = "CCCC(=O)N1CCCCC1c1nccc(C)n1 (configuration not stated)"
units_symbol = "%"
obs_value = -21

[[record]]
molecule = "COCCNc1ccc(CC2CCCN(C3CCOCC3)C2)nn1 (configuration not stated)"
units_symbol = "%"
obs_value = 6.38

[[record]]
molecule = "CCOc1ccc(NC(=O)NC2CCc3[nH]ncc3C2)cn1 (configuration not stated)"
units_symbol = "%"
obs_value = 3.95

[[record]]
molecule = "CN1CCOC(C(=O)Nc2nnc(Cc3ccc(F)cc3)[nH]2)C1 (configuration not stated)"
units_symbol = "%"
obs_value = -4.95

[[record]]
molecule = "Cc1noc(C)c1CN(C)Cn1nccc1-c1cccnc1"
units_symbol = "%"
obs_value = -0.532

